Biological target: T1, HLA-DR DRB1*0701 (human)
T1 chain 1: not shown
T1 chain 2: not shown
Experiment: radiolabeled-peptide inhibition, purified HLA-DR
Details: remark: other sources report otherwise
In this section we review reported IC50 values for a set of binders.
observed-property: IC50 (nM)

| binder | endpoint-value |
| --- | --- |
| GMSYLEDVRLVHRDL [9019.0002] | 5410 |
| PESFDGDPASNTAPL [9019.0048] | 2820 |
| LQGLPREYVNARHCL [9019.0064] | 1900 |
| ILLVVVLGVVFGILI [9019.0068] | 780 |
| CMQIAKGMSYLEDVR [9019.0083] | 116 |
| ISAVVGILLVVVLGV [9019.0067] | 941 |
| CYGLGMEHLREVRAV [9019.0044] | 271 |
| SQFLRGQECVEECRV [9019.0062] | 540 |
| MAGVGSPYVSRLLGI [9019.0078] | 352 |

All figures here come from patent US20100310640A1.
